Ref: patent US11702404B2

- Assay procedure: Microsomal stability, human liver microsomes (predicted hepatic clearance)
- Test conditions: predicted from in vitro microsomal stability data
# strict inequality: Predicted Hepatic Clearance (Pred. Cl.) < 7 mL/min/kg yields condition met, everything else yields condition not met

                                   molecule        group_label
0  COCCn1c(C2CCc3cc(-c4cccc(OCc5ccc(C#N)cc5F)n4)ccc32)nc2ccc(C(=O)O)cc21 (stereo not shown) [Example 36]      condition met
1  COCCn1c(Cc2cnc(-c3cccc(OCc4ccc(C#N)cc4F)n3)cn2)nc2ccc(C(=O)O)cc21 [Example 102]      condition met
2  COCCn1c(Cc2ccc(-c3cccc(OCc4ncc(Cl)s4)n3)cc2F)nc2ccc(C(=O)O)cc21 [Example 592]  condition not met
3  CCn1c(Cc2ccc(-c3cccc(OCc4ccc(C#N)cc4F)n3)cc2F)nc2ccc(C(=O)O)cc21 [Example 242]      condition met
4  COCCn1c(Cc2ccc(-c3ncc(F)c(OCc4ccc(C#N)cc4F)n3)c(F)c2F)nc2ccc(C(=O)O)cc21 [Example 169]      condition met
5  COCCn1c(Cc2ccc(-c3cccc(OCc4ccc(C5(F)COC5)cc4)n3)cc2F)nc2ccc(C(=O)O)cc21 [Example 460]  condition not met

----------
- Assay procedure: Microsomal stability, human liver microsomes (predicted hepatic clearance)
- Test conditions: predicted from in vitro microsomal stability data
Predicted Hepatic Clearance (Pred. Cl.) vs 7 mL/min/kg: at or above is Y, below is N.

>>> df
                                    compound  group_label
 0  COCCn1c(Cc2cc(F)c(-c3cccc(OCc4ccc(C#N)cc4F)n3)cc2F)nc2ccc(C(=O)O)cc21 [Example 426]            N
 1  Cn1ccnc1Cn1c(Cc2ccc(-c3cccc(OCc4ccc(C#N)cc4F)n3)cc2F)nc2ccc(C(=O)O)cc21 [Example 607]            N
 2  COCCn1c(Cc2c(F)cc(-c3cccnc3OCc3ccccc3)cc2F)nc2ccc(C(=O)O)cc21 [Example 186]            Y
 3  COCCn1c(Cc2ccc(-c3cccc(NCc4ccc(C#N)cc4OC)n3)cc2F)nc2ccc(C(=O)O)cc21 [Example 195]            Y
 4  N#Cc1ccc(COc2cccc(-c3cc(F)c(Cc4nc5ccc(C(=O)O)nc5n4CC4(CF)CC4)c(F)c3)n2)c(F)c1 [Example 319]            N
 5  N#Cc1ccc(COc2cccc(-c3ccc(Cc4nc5ccc(C(=O)O)cc5n4CC4(C(F)F)CCC4)c(F)c3)n2)c(F)c1 [Example 385]            N
 6  N#Cc1ccc(COc2cccc(-c3ccc(Cc4nc5cc(F)c(C(=O)O)cc5n4C[C@@H]4CCO4)c(F)c3)n2)c(F)c1 [Example 206]            N
 7  COC(CN)Cn1c(Cc2ccc(-c3cccc(OCc4ccc(C#N)cc4F)n3)cc2F)nc2ccc(C(=O)O)cc21 (single isomer, unassigned) [Example 340]            N
 8  COCCn1c(Cc2c(F)cc(-c3csnc3OCc3ccc(Cl)cc3F)cc2F)nc2ccc(C(=O)O)cc21 [Example 72]            Y
 9  N#Cc1ccc(COc2cccc(-c3ccc(Cc4nc5ccc(C(=O)NS(=O)(=O)C6CC6)cc5n4CC4(CF)CC4)c(F)c3)n2)c(F)c1 [Example 57]            N
10  COCCn1c(Cc2cc(F)c(-c3ccc(F)c(OCc4cc(F)c(C#N)cc4F)n3)cc2F)nc2c(F)cc(C(=O)O)cc21 [Example 763]            N
11  N#Cc1ccc(COc2cccc(-c3cc(F)c(Cc4nc5ccc(C(=O)O)cc5n4CC4(n5ccnn5)CC4)cc3F)n2)c(F)c1 [Example 577]            Y
12  CC(=O)N1CCC[C@H](Cn2c(Cc3ccc(-c4cccc(OCc5ccc(C#N)cc5F)n4)cc3F)nc3ccc(C(=O)O)cc32)C1 [Example 488]            Y
13  N#Cc1ccc(COc2nccc(-c3ccc(Cc4nc5ccc(C(=O)O)cc5n4CC45CC(CO4)C5)cc3F)n2)c(F)c1 [Example 626]            Y
14  COCCn1c(Cc2ccc(-c3nc(OCc4ccc(C#N)cc4F)ccc3F)c(F)c2)nc2ccc(C(=O)O)cc21 [Example 114]            N
15  COCCn1c(Cc2cc(F)c(-c3cccc(OCc4cc(F)c(C#N)cc4F)n3)cc2F)nc2ccc(C(=O)O)cc21 [Example 565]            N
16  N#Cc1ccc(COc2cccc(-c3ccc(Cc4nc5ccc(C(=O)O)cc5n4CC4(C#N)CC4)c(F)c3)n2)c(F)c1 [Example 13]            N
17  COC[C@H](Cn1c(Cc2cc(F)c(-c3cccc(OCc4ccc(C#N)cc4F)n3)cc2F)nc2ccc(C(=O)O)cc21)OC [Example 620]            N
18  N#Cc1ccc(COc2cccc(-c3cc(F)c(Cc4nc5ccc(C(=O)O)cc5n4C[C@@H]4CCO4)cc3F)n2)c(OC(F)F)n1 [Example 858]            Y
19  COCCn1c(Cc2cc(F)c(-c3cccc(OCc4cccc(Br)c4)n3)cc2F)nc2ccc(C(=O)O)cc21 [Example 876]            N
20  COCCn1c(Cc2cc(F)c(-c3cccnc3OCc3ccc(C#N)cc3F)cc2F)nc2ccc(C(=O)O)cc21 [Example 211]            Y
21  COCC1(Cn2c(Cc3ccc(-c4cccc(OCc5ccc(C#N)cc5F)n4)cc3F)nc3ccc(C(=O)O)cc32)CC1 [Example 380]            N
22  N#Cc1ccc(COc2nc(-c3cc(F)c(Cc4nc5c(F)cc(C(=O)O)cc5n4C[C@@H]4CCO4)cc3F)ccc2F)cn1 [Example 779]            N
23  COCCn1c(Cc2cc(Cl)c(-c3cccc(OCc4ccc(C#N)cc4F)n3)cc2F)nc2ccc(C(=O)O)cc21 [Example 314]            N
24  COCCn1c(C2CCOc3cc(-c4cccc(OCc5ccc(C#N)cc5F)n4)ccc32)nc2ccc(C(=O)O)cc21 (stereo not drawn) [Example 41]            N
25  COCCn1c(C2OCCc3cc(-c4cccc(OCc5ccc(C#N)cc5F)n4)ccc32)nc2ccc(C(=O)O)cc21 (single isomer, unassigned) [Example 48]            N
26  N#Cc1ccc(COc2cccc(-c3cc(F)c(Cc4nc5ccc(C(=O)O)nc5n4CC4(CF)CC4)cc3F)n2)c(F)c1 [Example 440]            N

----------
- Target: UniProt:P43220
- Sequence (P43220 24-463): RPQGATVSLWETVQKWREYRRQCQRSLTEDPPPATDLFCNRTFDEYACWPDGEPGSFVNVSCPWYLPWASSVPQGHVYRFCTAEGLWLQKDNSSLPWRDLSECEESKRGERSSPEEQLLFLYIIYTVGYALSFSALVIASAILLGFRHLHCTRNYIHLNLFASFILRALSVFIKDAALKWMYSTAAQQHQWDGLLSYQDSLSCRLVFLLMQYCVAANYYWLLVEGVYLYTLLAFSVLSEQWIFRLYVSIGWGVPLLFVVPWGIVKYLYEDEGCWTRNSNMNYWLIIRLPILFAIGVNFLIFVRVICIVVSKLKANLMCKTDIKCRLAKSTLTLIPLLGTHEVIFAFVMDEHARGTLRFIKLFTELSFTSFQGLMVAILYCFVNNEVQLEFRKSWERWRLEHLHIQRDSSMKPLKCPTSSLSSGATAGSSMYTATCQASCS
- Assay procedure: GLP-1R activation: cAMP increase in CHO cells stably expressing GLP-1R
- Format: cell-based
- Test conditions: cAMP increase, CHO cells stably expressing GLP-1R, 10 point dose response, 30 minutes incubation; read-out: EC50
Reported log10 of EC50 values for the following molecules.
Measurement kind: log10 of EC50 (log10 of the value in nM)

In [3]: df
Out[3]:
                                    molecule  observed_measurement
 0  N#Cc1ccc(COc2ccc(F)c(-c3cc(F)c(Cc4nc5c(F)cc(C(=O)O)cc5n4C[C@@H]4CCO4)cc3F)n2)c(F)c1 [Example 792]                 -1.40
 1  COCCn1c(Cc2ccc(-c3cccc(OCc4ccc(C#N)cc4F)n3)cc2C#Cc2ccccc2)nc2ccc(C(=O)O)cc21 [Example 237]                  1.28
 2  COCCn1c(Cc2ccc(-c3nc(OCc4ccc(C#N)cc4F)cs3)cc2F)nc2ccc(C(=O)O)cc21 [Example 84]                  1.73
 3  COCCn1c(Cc2cc(F)c(-c3cccc(OCc4ccc(C(F)(F)F)s4)n3)cc2F)nc2ccc(C(=O)O)cc21 [Example 864]                  0.57
 4  CN1CCO[C@H](Cn2c(Cc3cc(F)c(-c4cccc(OCc5ccc(C#N)cc5F)n4)cc3F)nc3ccc(C(=O)O)cc32)C1 [Example 639]                  1.89
 5  N#Cc1ccc(COc2cccc(-c3ccc(Cc4nc5ccc(C(=O)O)cc5n4CC4(c5cccnc5)CC4)c(F)c3)n2)c(F)c1 [Example 292]                  1.69
 6  O=C(O)c1ccc2nc(Cc3cc(F)c(-c4cccc(OCc5ccc(C(F)F)cc5F)n4)cc3F)n(CC3(CF)CC3)c2c1 [Example 719]                 -0.43
 7  COCCn1c(Cc2ccc(-c3cccc(OCc4cccc5ccoc45)n3)cc2F)nc2ccc(C(=O)O)cc21 [Example 136]                  1.39
 8  COC(Cn1c(Cc2ccc(-c3cccc(OCc4ccc(C#N)cc4F)n3)cc2F)nc2ccc(C(=O)O)cc21)C(N)=O (single isomer, unassigned) [Example 334]                  0.85
 9  COCCn1c(Cc2ccc(-c3cccc(OCc4ccc(C#N)cc4F)n3)cc2-c2cc[nH]n2)nc2ccc(C(=O)O)cc21 [Example 260]                  2.05
10  CO[C@@H](CO)Cn1c(Cc2cc(F)c(-c3cccc(OCc4ccc(C#N)cc4F)n3)cc2F)nc2ccc(C(=O)O)cc21 [Example 619]                  0.49
11  N#Cc1ccc(COc2cccc(-c3ccc(Cc4nc5ccc(C(=O)O)cc5n4CCOC(F)F)c(F)c3)n2)c(F)c1 [Example 324]                  0.72
